Hey, just so you know, these numbers are from PubChem BioAssay AID2060618.

# Tested on: 454973-116-R2-J3-PDC spheroids, percent test/control viability
# test.description: Anticancer human tumor 454973-116-R2-J3-PDC patient-derived pancreatic carcinoma cell line growth inhibition [CLK]
# assay.context: second compound 1 µM; first compound 0.0316 µM; active compounds read low; spheroids with HUVEC and MSC
What viability, T/C was measured for each of the following?

Some solved entries appear below for comparison.
[[record]]
compound = "O=C(c1cc(Cc2n[nH]c(=O)c3ccccc23)ccc1F)N1CCN(C(=O)C2CC2)CC1 + CNC(=O)c1ccc(Nc2nc(OC3CCCC3)c3c(-c4ccc5nc(C)oc5c4)c[nH]c3n2)c(OC)c1"
assay_value = "36.5%"

[[record]]
compound = "CC1(C)CCC(CN2CCN(c3ccc(C(=O)NS(=O)(=O)c4ccc(NCC5CCOCC5)c([N+](=O)[O-])c4)c(Oc4cnc5[nH]ccc5c4)c3)CC2)=C(c2ccc(Cl)cc2)C1 + CN1CCN(c2cc(C(=O)Nc3cc4cc(-c5cnn(C)c5)ccc4cn3)ccn2)CC1"
assay_value = "0.12%"


Batch request: viability, T/C per item, same order as input.
1. C=C(F)C(=O)N1CCN(c2nc(OCC3CCCN3C)nc3c2CCN(c2cccc4cccc(Cl)c24)C3)CC1CC#N (stereo unspecified) + CNC(=O)c1ccc(Nc2nc(OC3CCCC3)c3c(-c4ccc5nc(C)oc5c4)c[nH]c3n2)c(OC)c1
2. Nc1ccn(C2OC(CO)C(O)C2(F)F)c(=O)n1 (stereo unspecified) + CN1CCN(c2cc(C(=O)Nc3cc4cc(-c5cnn(C)c5)ccc4cn3)ccn2)CC1
3. CCN1CCN(Cc2ccc(Nc3ncc(F)c(-c4cc(F)c5nc(C)n(C(C)C)c5c4)n3)nc2)CC1 + CNC(=O)c1ccc(Nc2nc(OC3CCCC3)c3c(-c4ccc5nc(C)oc5c4)c[nH]c3n2)c(OC)c1
4. CC(Nc1ccc2c(c1)OCCn1cc(N3C(=O)OCC3C(F)F)nc1-2)C(N)=O (stereo unspecified) + CNC(=O)c1ccc(Nc2nc(OC3CCCC3)c3c(-c4ccc5nc(C)oc5c4)c[nH]c3n2)c(OC)c1
5. CCN1CCN(Cc2ccc(Nc3ncc(F)c(-c4cc(F)c5nc(C)n(C(C)C)c5c4)n3)nc2)CC1 + CN1CCN(c2cc(C(=O)Nc3cc4cc(-c5cnn(C)c5)ccc4cn3)ccn2)CC1
6. O=c1[nH]cc(F)c(=O)[nH]1 + CN1CCN(c2cc(C(=O)Nc3cc4cc(-c5cnn(C)c5)ccc4cn3)ccn2)CC1

output:
35.2%
1.36%
39%
31.1%
2.77%
0.1%

----------
# Test system: 454973-116-R2-J3-PDC spheroids, percent test/control viability
# test.description: Anticancer human tumor 454973-116-R2-J3-PDC cell line growth inhibition [CLK];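 further: spheroids exposed to compounds for 7 days before readout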
# assay.context: second compound 1 µM; first compound 1 µM; active compounds read low; spheroids with HUVEC and MSC
readout.kind: viability, T/C (%)
Answers are plain numbers, in %.

Some solved entries appear below for comparison.
[[record]]
molecule = "CCCS(=O)(=O)Nc1ccc(F)c(C(=O)c2c[nH]c3ncc(-c4ccc(Cl)cc4)cc23)c1F + CN1CCN(c2cc(C(=O)Nc3cc4cc(-c5cnn(C)c5)ccc4cn3)ccn2)CC1"
assay_value = 0.11

[[record]]
molecule = "C#Cc1c(F)ccc2cc(O)cc(-c3ncc4c(N5CC6CCC(C5)N6)nc(OCC56CCCN5CC(F)C6)nc4c3F)c12 (configuration not stated) + CN1CCN(c2cc(C(=O)Nc3cc4cc(-c5cnn(C)c5)ccc4cn3)ccn2)CC1"
assay_value = 0.08

[[record]]
molecule = "CC1(C)CCC(CN2CCN(c3ccc(C(=O)NS(=O)(=O)c4ccc(NCC5CCOCC5)c([N+](=O)[O-])c4)c(Oc4cnc5[nH]ccc5c4)c3)CC2)=C(c2ccc(Cl)cc2)C1 + CN1CCN(c2cc(C(=O)Nc3cc4cc(-c5cnn(C)c5)ccc4cn3)ccn2)CC1"
assay_value = 0.14

[[record]]
molecule = "CCN1CCN(Cc2ccc(Nc3ncc(F)c(-c4cc(F)c5nc(C)n(C(C)C)c5c4)n3)nc2)CC1 + CNC(=O)c1ccc(Nc2nc(OC3CCCC3)c3c(-c4ccc5nc(C)oc5c4)c[nH]c3n2)c(OC)c1"
assay_value = 47


Batch request: viability, T/C per item, same order as input.
1. CCN1CCN(Cc2ccc(Nc3ncc(F)c(-c4cc(F)c5nc(C)n(C(C)C)c5c4)n3)nc2)CC1 + CN1CCN(c2cc(C(=O)Nc3cc4cc(-c5cnn(C)c5)ccc4cn3)ccn2)CC1
2. CC1(C)CCC(CN2CCN(c3ccc(C(=O)NS(=O)(=O)c4ccc(NCC5CCOCC5)c([N+](=O)[O-])c4)c(Oc4cnc5[nH]ccc5c4)c3)CC2)=C(c2ccc(Cl)cc2)C1 + CNC(=O)c1ccc(Nc2nc(OC3CCCC3)c3c(-c4ccc5nc(C)oc5c4)c[nH]c3n2)c(OC)c1
3. C=CC(=O)N1CCN(c2nc(=O)n(-c3c(C)ccnc3C(C)C)c3nc(-c4c(O)cccc4F)c(F)cc23)C(C)C1 (configuration not stated) + CNC(=O)c1ccc(Nc2nc(OC3CCCC3)c3c(-c4ccc5nc(C)oc5c4)c[nH]c3n2)c(OC)c1

output:
[0.24, 28.4, 32.6]

----------
# Tested on: 454973-116-R2-J3-PDC spheroids, percent test/control viability
# test.description: Anticancer human tumor 454973-116-R2-J3-PDC cell line growth inhibition [CLK]; active means viability on the fitted dose curve at most 10% of control; inactive means the rest;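 further: spheroids exposed to compounds for 7 days before readout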
# assay.context: second compound 1 µM; first compound 0.0316 µM; spheroids with HUVEC and MSC
Outcome (select one): 1.0 (active), 0.0 (inactive)

Use these answered entries as a reference point.
[[record]]
compound = "COc1cccc2c1C(=O)c1c(O)c3c(c(O)c1C2=O)CC(O)(C(=O)CO)CC3OC1CC(N)C(O)C(C)O1 (stereo not given) + CNC(=O)c1ccc(Nc2nc(OC3CCCC3)c3c(-c4ccc5nc(C)oc5c4)c[nH]c3n2)c(OC)c1"
target_desc = "454973-116-R2-J3-PDC spheroids, percent test/control viability"
category_label = 0.0

[[record]]
compound = "CC1(C)CCC(CN2CCN(c3ccc(C(=O)NS(=O)(=O)c4ccc(NCC5CCOCC5)c([N+](=O)[O-])c4)c(Oc4cnc5[nH]ccc5c4)c3)CC2)=C(c2ccc(Cl)cc2)C1 + CNC(=O)c1ccc(Nc2nc(OC3CCCC3)c3c(-c4ccc5nc(C)oc5c4)c[nH]c3n2)c(OC)c1"
target_desc = "454973-116-R2-J3-PDC spheroids, percent test/control viability"
category_label = 0.0

[[record]]
compound = "CC(CO)NC(=O)c1cc(-c2ccc(Cl)cc2)nn(-c2cnn(C)c2)c1=O (stereo not given) + CN1CCN(c2cc(C(=O)Nc3cc4cc(-c5cnn(C)c5)ccc4cn3)ccn2)CC1"
target_desc = "454973-116-R2-J3-PDC spheroids, percent test/control viability"
category_label = 1.0

[[record]]
compound = "COc1ccc([C@@H](O)c2cc(-c3ncnc4cc(N5CCOCC5)ccc34)c(F)cc2Cl)nn1 + CNC(=O)c1ccc(Nc2nc(OC3CCCC3)c3c(-c4ccc5nc(C)oc5c4)c[nH]c3n2)c(OC)c1"
target_desc = "454973-116-R2-J3-PDC spheroids, percent test/control viability"
category_label = 0.0


Kindly review the next compound as well.
input: Returns: the outcome recorded for CC1COCCN1c1cc(C2(S(C)(=N)=O)CC2)nc(-c2ccnc3[nH]ccc23)n1 (stereo not given) + CN1CCN(c2cc(C(=O)Nc3cc4cc(-c5cnn(C)c5)ccc4cn3)ccn2)CC1 in this assay.
output: 1.0

----------
What viability, T/C was measured for each of the following?
# Tested on: 454973-116-R2-J3-PDC spheroids, percent test/control viability
# test.description: Anticancer human tumor 454973-116-R2-J3-PDC cell line growth inhibition [CLK];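 further: spheroids exposed to compounds for 7 days before readout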
# assay.context: second compound 0.1 µM; first compound 0.0316 µM; active compounds read low; spheroids with HUVEC and MSC
Answers are plain numbers, in %.

Batch request: viability, T/C per item, same order as input.
1. Nc1ccn(C2OC(CO)C(O)C2(F)F)c(=O)n1 (stereo not drawn) + CNC(=O)c1ccc(Nc2nc(OC3CCCC3)c3c(-c4ccc5nc(C)oc5c4)c[nH]c3n2)c(OC)c1
2. CCN1CCN(Cc2ccc(Nc3ncc(F)c(-c4cc(F)c5nc(C)n(C(C)C)c5c4)n3)nc2)CC1 + CNC(=O)c1ccc(Nc2nc(OC3CCCC3)c3c(-c4ccc5nc(C)oc5c4)c[nH]c3n2)c(OC)c1
3. CC(Nc1ccc2c(c1)OCCn1cc(N3C(=O)OCC3C(F)F)nc1-2)C(N)=O (stereo not drawn) + CN1CCN(c2cc(C(=O)Nc3cc4cc(-c5cnn(C)c5)ccc4cn3)ccn2)CC1

output:
1. 9.97
2. 79.2
3. 67.4

----------
# Tested on: 454973-116-R2-J3-PDC spheroids, percent test/control viability
# test.description: Anticancer human tumor 454973-116-R2-J3-PDC cell line growth inhibition [CLK];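 further: spheroids exposed to compounds for 7 days before readout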
# assay.context: second compound 0.1 µM; first compound 3.16 µM; active compounds read low; spheroids with HUVEC and MSC
# Description: A high-throughput screen of multi-cell type tumor spheroids was designed to identify active combinations of […] and targeted small molecules. Complex spheroids include a stromal component modeled by human endothelial cells (HUVEC) and fibroblasts modeled by human mesenchymal stem cells (MSCs). […] Compounds. […] If the clinical Cmax for an agent had not been determined, the highest concentration tested was 10 microM. […]
What viability, T/C was measured for each of the following?

Some solved entries appear below for comparison.
[[record]]
molecule = "COc1ccc([C@@H](O)c2cc(-c3ncnc4cc(N5CCOCC5)ccc34)c(F)cc2Cl)nn1 + CNC(=O)c1ccc(Nc2nc(OC3CCCC3)c3c(-c4ccc5nc(C)oc5c4)c[nH]c3n2)c(OC)c1"
target_desc = "454973-116-R2-J3-PDC spheroids, percent test/control viability"
assay_value = "72.9%"

[[record]]
molecule = "COC1C=CCC(C)C(C)S(=O)(=O)NC(=O)c2ccc3c(c2)N(CC2CCC21)CC1(CCCc2cc(Cl)ccc21)CO3 (centres undefined) + CN1CCN(c2cc(C(=O)Nc3cc4cc(-c5cnn(C)c5)ccc4cn3)ccn2)CC1"
target_desc = "454973-116-R2-J3-PDC spheroids, percent test/control viability"
assay_value = "27.5%"

[[record]]
molecule = "CC(CO)NC(=O)c1cc(-c2ccc(Cl)cc2)nn(-c2cnn(C)c2)c1=O (centres undefined) + CNC(=O)c1ccc(Nc2nc(OC3CCCC3)c3c(-c4ccc5nc(C)oc5c4)c[nH]c3n2)c(OC)c1"
target_desc = "454973-116-R2-J3-PDC spheroids, percent test/control viability"
assay_value = "101%"


input: Recall the recorded viability, T/C for Nc1ccccc1NC(=O)c1ccc(CNC(=O)OCc2cccnc2)cc1 + CNC(=O)c1ccc(Nc2nc(OC3CCCC3)c3c(-c4ccc5nc(C)oc5c4)c[nH]c3n2)c(OC)c1 with 454973-116-R2-J3-PDC spheroids, percent test/control viability and state it.
output: 26.8%
